tested on: IGROV1 ovarian; experiment: NCI tumour cell line growth inhibition, 48 h
Where a SMILES comes first, the peptide text is derived from it. [ ]: non-standard residue; d: D form. NMeY = CN[C@@H](Cc1ccc(O)cc1)C(=O)O; dNMeF = CN[C@H](Cc1ccccc1)C(=O)O; Sar = CNCC(=O)O
Please go through the items and note down their TGI.
Numbers only here, please. The scale is µM.

Task: Answer with the recorded TGI of S=C=NCc1ccccc1 only.
Result: 8.17

Task: Answer with the recorded TGI of CC[C@H](C)C1=C(O)[N@+]2([O-])Oc3ccc(-c4c(O)c(O)c(-c5ccc(OC(C)=O)cc5)c(OC(C)=O)c4OC(C)=O)cc3O[C@]2([C@@H](C)CC)C(=O)N1O only.
Result: 18.6

Task: Answer with the recorded TGI of COc1cc(C)c2c(=O)c3c(oc2c1)C(=O)c1c(O)c(OC)cc(O)c1C3=O only.
Result: 4.29

Task: Answer with the recorded TGI of CCOC(=O)Cn1c(C)c(/C=N/NC(=O)c2cc3c(ccc4ccccc43)o2)c2ccccc21 only.
Result: 3.47

Task: Answer with the recorded TGI of Cc1c2cccc-2ccc2c1[nH]c1ccc(Br)cc12 only.
Result: 15

Task: Answer with the recorded TGI of O=c1oc2ccc(Cl)cc2c(=O)n1-c1cc(C(F)(F)F)cc(C(F)(F)F)c1 only.
Result: 12.9

Task: Answer with the recorded TGI of C[C@]12CC[C@H](O)C=C1CC[C@@H]1[C@@H]2CC[C@]2(C)C(=N/O)/C(=C/c3ccncc3)C[C@@H]12 only.
Result: 81.6

Task: Answer with the recorded TGI of CC(C)Oc1ccc(CNC2=NCCO2)c2ccccc12 only.
Result: 27.9

Task: Answer with the recorded TGI of CC[C@H](C)[C@@H]1NC(=O)[C@H](Cc2ccc(O)cc2)N(C)C(=O)[C@H](Cc2ccccc2)NC(=O)CN(C)C(=O)[C@@H]2CCCN2C(=O)[C@@H](Cc2ccccc2)N(C)C(=O)[C@H](CC(C)C)NC1=O (cyclo(F[NMeY]IL[dNMeF]P[Sar])) only.
Result: 5.2

----------
tested on: MCF7 breast; experiment: NCI tumour cell line growth inhibition, 48 h
Please go through the items and note down their TGI.
Numbers only here, please. The scale is µM.

Task: Answer with the recorded TGI of O=C(Nc1nnc(-c2c(Cl)c(Cl)c(Cl)c(Cl)c2-c2nc3cc(C(=O)c4ccccc4)ccc3[nH]2)o1)c1ccccc1 only.
Result: 36.5

Task: Answer with the recorded TGI of CCOC(=O)CCC(C(=O)OCC)n1nnc2ccc(Nc3c(C)[n+]([O-])c4cc(Cl)ccc4[n+]3[O-])cc21 (stereo not given) only.
Result: 34.3

Task: Answer with the recorded TGI of CC1=C(C#N)C2C(=C(N)Oc3ccccc32)C(N)=N1 (stereo not given) only.
Result: 62.9

Task: Answer with the recorded TGI of C/C1=C\C/C=C(\C)[C@H]2CC(CC/C(C)=C/CC1)[C@@](C)(CO)O2 only.
Result: 77.7

----------
test system: HT29 colon; test: NCI tumour cell line growth inhibition, 48 h
Please go through the items and note down their log10 of TGI.
// units: µM (pre-log); metric: TGI; scale: log10

Task: Answer with the recorded log10 of TGI of O=C(Nc1nnc(-c2c(Cl)c(Cl)c(Cl)c(Cl)c2-c2nc3cc(C(=O)c4ccccc4)ccc3[nH]2)o1)c1ccccc1 only.
Result: 1.80

Task: Answer with the recorded log10 of TGI of Cc1cc(N(CCCCl)CCCCl)ccc1C=Nc1cccc(Cl)c1 only.
Result: 1.44

Task: Answer with the recorded log10 of TGI of COc1ccc2[nH]c(=O)c(/C=C/C(=O)/C=C/c3ccc(O)c(OC)c3)cc2c1 only.
Result: 0.33

Task: Answer with the recorded log10 of TGI of Nc1ccc2cc3[nH]c4cc(N)ccc4c3nc2c1 only.
Result: 0.17

Task: Answer with the recorded log10 of TGI of CC(=O)c1nc2ccccc2n1CC(=O)c1ccc(Cl)cc1 only.
Result: 1.55

Task: Answer with the recorded log10 of TGI of Cc1ncc(C(=O)Nc2ccc(CN3CCN(C)CC3)c(C(F)(F)F)c2)cc1C#Cc1cnc(N)c2ncccc12 only.
Result: 0.32
